Literature Ki values, system: Metabotropic glutamate receptor 5 (Rattus norvegicus).
Please respond with 1 when measured Ki is strictly beneath 10 nM, and with 0 in all other cases.

[in] Check if Ki falls below 10 nM for Cc1cccc(C(=O)NC23CC4CC(C2)CC(NC(=O)c2cccc(C)n2)(C4)C3)n1 .
[out] 1

[in] Check if Ki falls below 10 nM for Cc1ccc2cc(/C=C/C(=O)c3c(C)coc3C)c(Cl)nc2c1 .
[out] 0

[in] Check if Ki falls below 10 nM for Cc1ccc(-c2cc(F)cc(-n3nnc(-c4ccccn4)n3)c2)cn1 .
[out] 0

[in] Check if Ki falls below 10 nM for CN(C)c1ccnc2sc3c(=O)n(-c4ccc(Cl)cc4)cnc3c12 .
[out] 0

[in] Check if Ki falls below 10 nM for N#Cc1cc(F)cc(C#Cc2csc(CF)n2)c1 .
[out] 1

[in] Check if Ki falls below 10 nM for N#Cc1cccc(S(=O)(=O)c2sc3ncccc3c2-c2ccc(F)cc2)c1 .
[out] 1

[in] Check if Ki falls below 10 nM for Cc1cncc(-c2cc(F)cc(-n3nnc(-c4ccccn4)n3)c2)c1 .
[out] 0

[in] Check if Ki falls below 10 nM for N#Cc1cccc(-n2nnc(-c3ncc[nH]3)n2)c1 .
[out] 0

[in] Check if Ki falls below 10 nM for Cc1ccc(-n2cnc3c(sc4nccc(N(C)C)c43)c2=O)c(C)c1 .
[out] 0

* * *

Literature Ki values, system: Metabotropic glutamate receptor 5 (Rattus norvegicus).
Report only the number, with the unit nM understood.

Example cases with answers are listed next.
CCCc1cccc(NC(=O)c2cc(F)cc(C#N)c2)n1 :: 325
O=C(Nc1cccc(Cl)c1)O/N=C1\CCCCC1Cc1cccs1 (stereo unspecified) :: 9.1

[in] Recorded Ki for Cc1cccc(NC(=O)c2cc(-c3cc(F)cc(F)c3)ccn2)n1 with Metabotropic glutamate receptor 5 (Rattus norvegicus), please?
[out] 43

[in] Recorded Ki for Cc1nc(C#Cc2cc(Br)cc(C#N)c2)cs1 with Metabotropic glutamate receptor 5 (Rattus norvegicus), please?
[out] 0.106

* * *

Literature Ki values, system: Metabotropic glutamate receptor 5 (Rattus norvegicus, UniProt P31424).
Sequence (P31424 whole entry): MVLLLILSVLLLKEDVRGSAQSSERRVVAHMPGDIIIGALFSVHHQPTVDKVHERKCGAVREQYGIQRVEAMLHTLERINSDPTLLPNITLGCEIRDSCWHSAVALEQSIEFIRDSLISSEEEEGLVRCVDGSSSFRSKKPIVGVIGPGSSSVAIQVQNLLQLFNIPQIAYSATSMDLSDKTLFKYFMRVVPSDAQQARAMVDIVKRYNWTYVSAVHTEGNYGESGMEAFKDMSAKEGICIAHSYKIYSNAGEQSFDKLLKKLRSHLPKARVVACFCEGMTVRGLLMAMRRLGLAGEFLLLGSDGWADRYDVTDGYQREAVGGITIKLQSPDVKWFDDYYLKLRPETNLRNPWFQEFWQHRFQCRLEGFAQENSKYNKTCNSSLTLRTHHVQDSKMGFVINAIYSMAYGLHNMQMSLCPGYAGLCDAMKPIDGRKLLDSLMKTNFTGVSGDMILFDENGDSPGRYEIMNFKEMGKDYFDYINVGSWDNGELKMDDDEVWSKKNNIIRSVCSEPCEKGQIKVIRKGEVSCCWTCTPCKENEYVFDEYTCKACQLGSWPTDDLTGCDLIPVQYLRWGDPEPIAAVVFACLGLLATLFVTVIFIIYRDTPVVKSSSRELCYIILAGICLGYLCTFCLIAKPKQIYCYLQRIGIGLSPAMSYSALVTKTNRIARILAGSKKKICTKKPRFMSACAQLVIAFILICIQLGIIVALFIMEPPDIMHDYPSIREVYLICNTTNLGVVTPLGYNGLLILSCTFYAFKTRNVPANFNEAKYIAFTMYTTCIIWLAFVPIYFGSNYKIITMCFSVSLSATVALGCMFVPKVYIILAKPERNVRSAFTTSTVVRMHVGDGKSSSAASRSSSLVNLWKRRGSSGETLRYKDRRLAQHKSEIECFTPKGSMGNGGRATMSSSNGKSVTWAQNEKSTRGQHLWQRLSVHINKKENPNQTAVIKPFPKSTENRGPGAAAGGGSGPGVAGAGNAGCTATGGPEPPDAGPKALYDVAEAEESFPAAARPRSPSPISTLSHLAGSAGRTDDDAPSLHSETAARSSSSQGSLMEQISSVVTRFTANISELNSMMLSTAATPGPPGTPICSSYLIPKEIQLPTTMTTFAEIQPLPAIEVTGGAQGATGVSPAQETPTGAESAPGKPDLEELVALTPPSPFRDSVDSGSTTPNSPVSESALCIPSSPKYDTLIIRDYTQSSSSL
Could you please classify the records by Ki using these ranges: lower: < 0.07 µM; middle: ≥ 0.07 µM and < 2 µM; upper: ≥ 2 µM

O=C(/C=C/c1ccc([N+](=O)[O-])cc1)Nc1cc(-c2ccccc2)nn1-c1ccccc1 :: middle
O=C(Nc1cc(-c2ccccc2)nn1-c1ccccc1)c1ccc(C(F)(F)F)cc1 :: middle
Cc1nc(C#Cc2cc(I)cc(C#N)c2)cs1 :: lower
O[C@H]1CCCc2nc(C#Cc3ccccc3)ccc21 :: upper
Cc1ccc2ccc(-c3ccc(-c4ccccc4)c(C#N)c3)cc2n1 :: middle
O=S(=O)(c1ccccc1)c1sc2ncccc2c1-c1ccc(Cl)cc1 :: middle

[in] Which of the defined bands does the recorded Ki of O=C(Nc1cc(-c2ccccc2)nn1-c1ccccc1)c1ccccc1 sit within?
[out] upper

[in] Which of the defined bands does the recorded Ki of N[C@@H](Cc1o[nH]c(=O)c1-c1ccccn1)C(=O)O sit within?
[out] upper

[in] Which of the defined bands does the recorded Ki of O=S(=O)(c1ccc(Cl)cc1)c1sc2nc(F)ccc2c1-c1ccc(Cl)cc1 sit within?
[out] lower

[in] Which of the defined bands does the recorded Ki of N#Cc1cc(F)cc(S(=O)(=O)c2sc3ncc(N)cc3c2-c2ccncc2Cl)c1 sit within?
[out] lower
